Reference for the values: patent US12187713B2

# protocolNotes: Pharmacokinetic Assay, single oral dose 100 mg/kg (Table 11)
# Format: in vivo
# conditionLabel: mouse, C57 female mice, oral (intragastric), plasma
Here the recorded half-life is given for each entry.
Answer by giving the amount and then stating its unit.

{"molecule": "Cc1c(-c2nc3cc(CN4CC(N(C)C)C4)c(OC(F)F)cc3o2)cccc1-c1cccc(-c2nc3cc(CN4CCC[C@H]4C(=O)O)c(OC(F)F)cc3o2)c1C", "parameterMeasured": "half-life", "endpointResult": "660 min"}
{"molecule": "Cc1c(-c2nc3ccc(CN4CCCC4)cc3o2)cccc1-c1cccc(-c2nc3cc(CN4CCC[C@H]4C(=O)O)c(OC(F)F)cc3o2)c1C", "parameterMeasured": "half-life", "endpointResult": "1300 min"}
{"molecule": "Cc1c(-c2nc3cc(CN4CCC(C)C4)c(OC(F)F)cc3o2)cccc1-c1cccc(-c2nc3cc(CN4CCC[C@H]4C(=O)O)c(OC(F)F)cc3o2)c1C (stereo partly shown)", "parameterMeasured": "half-life", "endpointResult": "322 min"}
{"molecule": "Cc1c(Nc2nccc3cc(CN4CCC(O)C4)cnc23)cccc1-c1cccc(-c2nc3cc(CN4CCC[C@H]4C(=O)O)c(OC(F)F)cc3o2)c1C (stereo partly shown)", "parameterMeasured": "half-life", "endpointResult": "218 min"}

The reported half-life of the molecule Cc1c(-c2nc3cc(CNC[C@@H]4CCCO4)c(OC(F)F)cc3o2)cccc1-c1cccc(-c2nc3cc(CN4CCC[C@H]4C(=O)O)c(OC(F)F)cc3o2)c1C was 432 min

The reported half-life of the molecule COC[C@@H]1CCCN1Cc1cc2nc(-c3cccc(-c4cccc(-c5nc6cc(CN7CCC[C@H]7C(=O)O)c(OC(F)F)cc6o5)c4C)c3C)oc2cc1OC(F)F was 348 min

The reported half-life of the molecule Cc1c(-c2nc3cc(CN4CCC[C@H]4C(=O)O)c(OC(F)F)cc3o2)cccc1-c1cccc(-c2nc3cc(CN4CCCC4)cc(C(F)(F)F)c3o2)c1C was 630 min

The reported half-life of the molecule Cc1c(-c2nc3cc(CN(C)C)c(OC(F)F)cc3o2)cccc1-c1cccc(-c2nc3cc(CN4CCC[C@H]4C(=O)O)c(OC(F)F)cc3o2)c1C was 288 min

The reported half-life of the molecule Cc1c(-c2nc3cc(CN4CCCC4)c(OC(F)F)cc3o2)cccc1-c1cccc(-c2nc3cc(CN4CCC[C@H]4C(=O)O)c(OC(F)F)cc3o2)c1C was 304 min

The reported half-life of the molecule Cc1c(-c2nc3cc(CN4CCC[C@H]4C(=O)O)c(OC(F)F)cc3o2)cccc1-c1cccc(-c2nc3cc(CN4CCCC4(C)C)c(OC(F)F)cc3o2)c1C was 581 min

The reported half-life of the molecule Cc1c(-c2nc3cc(CN4CCC[C@H]4CO)c(OC(F)F)cc3o2)cccc1-c1cccc(-c2nc3cc(CN4CCC[C@H]4C(=O)O)c(OC(F)F)cc3o2)c1C was 478 min
